Sourced from the supplement of paper PMC5908809

Test system: normal NK cells expanded with K562-aAPC
Experiment: percent inhibition of viability; higher = more inhibition
Conditions: 72 h; IL-2 2.5 ng/mL; 10 nM
readout.type: percent inhibition of viability (%)
Give the value, in units of %, as a plain number.

Ask: For the molecule CN(C)C1CCN(C(=O)c2ccc(NC(=O)Nc3ccc(-c4nc(N5CCOCC5)nc(N5CCOCC5)n4)cc3)cc2)CC1 [Gedatolisib] (max concentration tested 1000 nM) , give its reported percent inhibition of viability.
Reply: 1.57

Ask: For the molecule Cc1cnc(Nc2ccc(OCCN3CCCC3)cc2)nc1Nc1cccc(S(=O)(=O)NC(C)(C)C)c1 [Fedratinib] (max concentration tested 10000 nM) , give its reported percent inhibition of viability.
Reply: -2.82

Ask: For the molecule Nc1nc(N)c2nc(-c3cccc(O)c3)c(-c3cccc(O)c3)nc2n1 [TG100-115] (max concentration tested 10000 nM) , give its reported percent inhibition of viability.
Reply: -3.08

Ask: For the molecule CNC(=O)c1ccc(N2C(=S)N(c3cnc(C#N)c(C(F)(F)F)c3)C(=O)C23CCC3)cc1F [ARN 509] (max concentration tested 10000 nM) , give its reported percent inhibition of viability.
Reply: 1.64

Ask: For the molecule O=C(Nc1cccc(Nc2ncc(Br)c(NCCc3cnc[nH]3)n2)c1)N1CCCC1 [BX-912] (max concentration tested 10000 nM) , give its reported percent inhibition of viability.
Reply: 2.98

Ask: For the molecule CN1CCC(CNc2ccc3ncc(-c4cccc(OC(F)(F)F)c4)n3n2)CC1 [SGI-1776] (max concentration tested 10000 nM) , give its reported percent inhibition of viability.
Reply: 2.03

* * *

System: NK-92 (IL-2 2.5 ng/mL);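 further: normalised to DMSO-only wells as negative and benzethonium chloride as positive control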
Test: percent inhibition of viability; higher = more inhibition
Settings: 72 h; 1 nM
readout.type: percent inhibition of viability (%)
Give the value, in units of %, as a plain number.

1. CN1CCC(COc2cnc(-c3cccc(Cn4nc(-c5cccc(C#N)c5)ccc4=O)c3)nc2)CC1 (max concentration tested 1000 nM) :: -4.45

Ask: For the compound N#Cc1ccc(C(c2ccc(C#N)cc2)n2cncn2)cc1 [Letrozole] (max concentration tested 10000 nM) , give its reported percent inhibition of viability.
Reply: -10.2

Ask: For the compound Nc1cc(C(F)(F)F)c(-c2cc(N3CCOCC3)nc(N3CCOCC3)n2)cn1 [Buparlisib] (max concentration tested 10000 nM) , give its reported percent inhibition of viability.
Reply: 7.02

Ask: For the compound O=C(Cc1ccc(-c2ccc(OCCN3CCOCC3)cc2)cn1)NCc1ccccc1 [KX2-391] (max concentration tested 10000 nM) , give its reported percent inhibition of viability.
Reply: 2.97

Ask: For the compound CS(=O)(=O)c1ccc(C(=O)Nc2ccc(Cl)c(-c3ccccn3)c2)c(Cl)c1 [Vismodegib] (max concentration tested 10000 nM) , give its reported percent inhibition of viability.
Reply: 1.83

Ask: For the compound Cn1cnc2c(F)c(Nc3ccc(Br)cc3F)c(C(=O)NOCCO)cc21 [Binimetinib] (max concentration tested 1000 nM) , give its reported percent inhibition of viability.
Reply: -5.18

Ask: For the compound C[C@@H](Oc1cc(-n2cnc3ccc(CN4CCN(C)CC4)cc32)sc1C(N)=O)c1ccccc1C(F)(F)F (max concentration tested 10000 nM) , give its reported percent inhibition of viability.
Reply: -10.3
